# Test system: MCF10A
# assay: one-nucleolus phenotype percent effect (relative to siNT 0% and siNOL11 100%); higher = more cells with one nucleolus (ribosome biogenesis inhibition)
# conditions-used: 20 nM; 72 h
Quick list: one-nucleolus phenotype percent effect per entry.
A number alone suffices; assume %.

> print(dat)
                             chain.sequence  assay.target  measured.value
1  AACACUGGCCUUGCUAUCCCCA [hsa-miR-6757-3p]        MCF10A            30.1
2  CUCGUGGGCUCUGGCCACGGCC [hsa-miR-3677-3p]        MCF10A           -2.83
3   CCCCACCUCCUCUCUCCUCAG [hsa-miR-1224-3p]        MCF10A           -25.7

In: Param readout= one-nucleolus phenotype percent effect; system= MCF10A; entry= ACAAAGUACAGCAUUAGCCUUAG [hsa-miR-3973] ; returns value.
Out: -6.17

In: Check AGAUGUAUGGAAUCUGUAUAUAUC [hsa-miR-3171] too.
Out: -12.5

In: Check CUGGGCUCGGGACGCGCGGCU [hsa-miR-4674] too.
Out: 18.5

Every entry's value here was drawn from the supplement of paper PMC10899765.
